# Test system: RNA
# method: percentage of IG in binary mixtures of RNA and ionizable lipid, ion pair reversed phase HPLC
# Type: physicochemical
# reported conditions: binary mixtures of RNA and Compound III with 1 mM agent; 25° C.; after 18 hours; versus control

molecule | levels of IG
O=C(O)CCCC[C@@H]1CCSS1 (racemic) | reduced levels of IG
O=S([O-])([O-])=S.[Na+].[Na+] [sodium thiosulfate] | reduced levels of IG
CC(=O)N[C@@H](CS)C(=O)O | reduced levels of IG
